target of assay: Gal6S(b1-4)GlcNAc
test description: glycan array binding signal (z-score within array); higher = stronger binding
condition context: glycan notation: IUPAC condensed, linker removed
This excerpt belongs to a sample that is enriched for the strongest signals.
experimental endpoint: glycan array binding signal (z-score)
Answer as a number with no unit attached.

What does the record list as glycan array binding signal (z-score) for UEA-I (Ulex europaeus), P22972 (protein) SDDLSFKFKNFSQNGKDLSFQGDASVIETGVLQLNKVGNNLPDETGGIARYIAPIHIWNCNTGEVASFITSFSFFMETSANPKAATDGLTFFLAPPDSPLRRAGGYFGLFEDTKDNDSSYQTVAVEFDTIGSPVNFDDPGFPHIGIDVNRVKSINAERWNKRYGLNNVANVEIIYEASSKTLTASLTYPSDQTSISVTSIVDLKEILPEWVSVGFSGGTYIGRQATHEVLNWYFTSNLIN ? -0.188
